All values here come from the supplement of paper PMC10567573.

B1: STK38L (parent)
chain: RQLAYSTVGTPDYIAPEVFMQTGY

Variants of: B1
protocolDetails: protein stability index of a GFP-peptide fusion (GPS, HEK-293T) (PSI 1-6); higher = more stable;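 note: lentivirally expressed fusions sorted by FACS into six bins by GFP to DsRed ratio, PSI derived from sequencing read proportions per bin multiplied by bin number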
testSettings: c terminus: a fixed tail appended
experimentalReadout: protein stability index

   variantdescription  valuereported
0                A15D           2.93
1                V18N           2.97
2                P11G              3
